# tested system: T1, MIS12 complex with Dsn1 residues 6–113 deleted (Homo sapiens, UniProt Q9H081 1-205; Q6P1K2 1-205; Q9H410 1-356; Q96IY1 1-281, 6–113 residues deleted)
# T1 construct: Mis12, subunit of human MIS12C; Pmf1, subunit of human MIS12C; Nsl1, subunit of human MIS12C; also called MIS12C^Dsn1ΔN; MIS12C^ΔN-Dsn1; source: High-5 insect cells (baculovirus), purified (Strep-Tactin, Resource S, Superdex 200); copies: + + +
# T1 sequence (looked up) 1: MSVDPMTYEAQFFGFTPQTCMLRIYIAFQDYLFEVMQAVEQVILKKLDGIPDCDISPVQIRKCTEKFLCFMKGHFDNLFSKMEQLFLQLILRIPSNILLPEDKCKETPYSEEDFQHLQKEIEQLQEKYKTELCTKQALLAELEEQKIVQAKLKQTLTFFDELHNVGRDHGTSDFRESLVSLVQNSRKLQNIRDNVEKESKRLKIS
# T1 sequence (looked up) 2: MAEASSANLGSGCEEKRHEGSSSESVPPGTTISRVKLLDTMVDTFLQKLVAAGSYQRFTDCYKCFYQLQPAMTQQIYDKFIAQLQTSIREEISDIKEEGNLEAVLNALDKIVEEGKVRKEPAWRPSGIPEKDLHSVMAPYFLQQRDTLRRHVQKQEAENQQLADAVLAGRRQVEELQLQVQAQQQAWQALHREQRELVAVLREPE
# T1 sequence (looked up) 3: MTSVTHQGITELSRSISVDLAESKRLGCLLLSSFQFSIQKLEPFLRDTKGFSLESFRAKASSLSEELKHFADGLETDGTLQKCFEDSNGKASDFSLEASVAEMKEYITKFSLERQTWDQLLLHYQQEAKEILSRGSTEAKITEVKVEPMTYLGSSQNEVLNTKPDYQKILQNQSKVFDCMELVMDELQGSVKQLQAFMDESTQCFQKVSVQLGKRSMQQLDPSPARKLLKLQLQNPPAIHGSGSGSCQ
# T1 sequence (looked up) 4: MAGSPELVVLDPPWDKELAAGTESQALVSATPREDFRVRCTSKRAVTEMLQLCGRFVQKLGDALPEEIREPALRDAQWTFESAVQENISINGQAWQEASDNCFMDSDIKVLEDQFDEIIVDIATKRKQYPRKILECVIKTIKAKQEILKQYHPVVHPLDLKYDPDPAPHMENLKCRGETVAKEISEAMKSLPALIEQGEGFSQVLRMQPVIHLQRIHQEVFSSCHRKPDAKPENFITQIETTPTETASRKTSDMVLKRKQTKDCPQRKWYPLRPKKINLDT
# assay method text: ITC; peptide in the syringe titrated into the MIS12C variant in the cell; 20 °C; 20 mM HEPES pH 7.5, 100 mM NaCl, 1 mM TCEP; single-site binding model; duplicate or triplicate
# measurement parameters: both partners purified
pKd: −log10 of the molar value.
experimental endpoint: pKd

* Ac-AASGLDHLKNGYRRRFCRPSRA-NH2 (CENP-C, human, named residues 2-22; also called N-terminal region of CENP-C (residues 2–22); source: synthetic peptide (Biosynth)) [CENP-C^2–22 peptide] | 7.99

Just for reference, paper PMC11189301 is where these values come from.
